# target: PACAP-R3 (Homo sapiens)
# Sequence (P41587 24-438): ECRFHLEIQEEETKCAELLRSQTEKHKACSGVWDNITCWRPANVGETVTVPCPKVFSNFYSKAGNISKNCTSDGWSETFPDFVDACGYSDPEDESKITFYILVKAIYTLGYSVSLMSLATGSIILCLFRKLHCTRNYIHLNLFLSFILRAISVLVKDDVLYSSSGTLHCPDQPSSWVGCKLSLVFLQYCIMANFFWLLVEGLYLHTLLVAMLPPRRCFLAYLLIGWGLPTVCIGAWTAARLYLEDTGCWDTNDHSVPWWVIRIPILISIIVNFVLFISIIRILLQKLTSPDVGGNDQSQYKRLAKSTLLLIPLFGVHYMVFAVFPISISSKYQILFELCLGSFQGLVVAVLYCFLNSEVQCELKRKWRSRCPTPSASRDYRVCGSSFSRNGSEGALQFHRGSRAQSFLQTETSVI
# experiment: Cyclic AMP SPA on CHO cells expressing PACAP R3
# Format: cell-based
# Set-up: expressed in transfected cells; host or cells: CHO cells (Geneticin selection)
# test.parameters: ratio of EC50 at R2 versus EC50 at R3
No end group written: not given here.
measure: R3 Selectivity
// response body must contain only the number

Solved cases (5 shown):
H-HSDGIFTESYSRYRKQMAVKKYLAALKKKRYKQRVKNK [Peptide R3P6] ... 3
H-HSDGIFTDSYSRYRKQMAVKKYKAAVL-NH2 [PAC23] ... 13
HSDAVFTDNYTRLRKQMARKKYLNSIKNKR [Peptide R3P110] ... 200
HSDAVFTDNYTRLRKQMAAKKYLNSIKNGR [Peptide R3P139] ... 50
HSDAVFTDNYTKLRKQLAAKKYLNDILNGGT [Peptide R3P11] ... 3

Here is the next item to consider.
Q) Look at this substance and give its reported R3 Selectivity. HSDAVFTDNYTRLRKQVAAKKYLQSIKK [Peptide R3P60]
A) 120
